EXPERIMENT SUMMARY: Antagonism of convulsions and of mortality caused by bicucullin
Assay type: in vivo, mouse (CD Charles Rivers mice)
CONDITION SUMMARY: mouse, oral, 60 min before bicucullin 0.8 mg/kg i.v.; probit method, confidence limits in parentheses, p < 0.05; read-out: Median effective dose (ED50) of the antagonism to the effects of bicucullin: Tonic convulsions
EXPERIMENTAL ENDPOINT: ED50

q: Any idea what ED50 was measured for CC1CC(Cc2c(F)cccc2Cl)NC1=O (stereo not drawn) ?
a: ~100 mg/kg

q: Any idea what ED50 was measured for CC1(C)CC(Cc2cccc(C(F)(F)F)c2)NC1=O (stereo not drawn) ?
a: ~100 mg/kg

q: Any idea what ED50 was measured for CC1(C)CC(Cc2ccc(Cl)cc2Cl)NC1=O (stereo not drawn) ?
a: ~100 mg/kg

q: Any idea what ED50 was measured for CC1CC(Cc2cccc(Cl)c2)NC1=O (stereo not drawn) ?
a: ~100 mg/kg

q: Any idea what ED50 was measured for CCC1(C)CC(Cc2ccc(F)cc2)NC1=O (stereo not drawn) ?
a: ~100 mg/kg

q: Any idea what ED50 was measured for CC1(C)CC(Cc2ccc(F)cc2)NC1=O (stereo not drawn) ?
a: 90 mg/kg
